# assay.notes: In vivo pharmacokinetics study in rats
# reported.conditions: male, Sprague-Dawley, rat, plasma, iv, 2 mg/kg
quantity.kind: AUC(0-inf)

Query :: GET /values?readout=AUC(0-inf)&item= Cc1cc(C)cc(S(=O)(=O)c2c(C(=O)NCCCCNS(=O)(=O)c3cccnc3)[nH]c3ccc(Cl)cc23)c1 [R10L4]
Result :: 481 ng·h/mL

###

# assay.notes: In vivo pharmacokinetics study in rats
# reported.conditions: male, Sprague-Dawley, rat, plasma, iv, 2 mg/kg
quantity.kind: Tmax

Query :: What Tmax value was documented for this compound, Cc1cc(C)cc(S(=O)(=O)c2c(C(=O)NCCCCNS(=O)(=O)c3cccnc3)[nH]c3ccc(Cl)cc23)c1 ?
Result :: 4.98 min

###

# System: HIV-1 WT strain (IIIB)
# assay.notes: Anti-HIV activity against WT HIV-1
# reported.conditions: WT HIV-1 IIIB
quantity.kind: SI IIIB (CC50/EC50 ratio)
# answer = number (no unit)

[[record]]
structure_smiles_string = "Cc1ccc(S(=O)(=O)NCCNC(=O)c2[nH]c3ccc(Cl)cc3c2S(=O)(=O)c2cc(C)cc(C)c2)cc1"
reported = 3787


Query :: Which SI IIIB (CC50/EC50 ratio) is listed for Cc1cc(C)cc(S(=O)(=O)c2c(C(=O)NCCCCCNS(=O)(=O)c3cccs3)[nH]c3ccc(Cl)cc23)c1 ?
Result :: 526

Query :: Endpoint output: SI IIIB (CC50/EC50 ratio) of COc1ccc(S(=O)(=O)NCCCCNC(=O)c2[nH]c3ccc(Cl)cc3c2S(=O)(=O)c2cc(C)cc(C)c2)cc1 . Value?
Result :: 615

Query :: Fill in the blank: the reported SI IIIB (CC50/EC50 ratio) of Cc1ccc(S(=O)(=O)NCCCCNC(=O)c2[nH]c3ccc(Cl)cc3c2S(=O)(=O)c2cc(C)cc(C)c2)cc1 is ____.
Result :: 3232

Query :: Which SI IIIB (CC50/EC50 ratio) is listed for Cc1cc(C)cc(S(=O)(=O)c2c(C(=O)NCCNS(=O)(=O)c3cccnc3)[nH]c3ccc(Cl)cc23)c1 ?
Result :: 3205

Query :: Recorded SI IIIB (CC50/EC50 ratio) for Cc1ccc(S(=O)(=O)NCCCCCNC(=O)c2[nH]c3ccc(Cl)cc3c2S(=O)(=O)c2cc(C)cc(C)c2)cc1 , please?
Result :: 4159

Query :: What value of SI IIIB (CC50/EC50 ratio) has been recorded for this entry: Cc1cc(C)cc(S(=O)(=O)c2c(C(=O)NCCNS(=O)(=O)c3ccc(-c4ccccc4)cc3)[nH]c3ccc(Cl)cc23)c1
Result :: 317

Query :: Look up SI IIIB (CC50/EC50 ratio) for this compound: Cc1cc(C)cc(S(=O)(=O)c2c(C(=O)NCCCNS(=O)(=O)c3cccs3)[nH]c3ccc(Cl)cc23)c1
Result :: 2105

Query :: For COc1ccc(S(=O)(=O)NCCCCCNC(=O)c2[nH]c3ccc(Cl)cc3c2S(=O)(=O)c2cc(C)cc(C)c2)cc1 , what is its reported SI IIIB (CC50/EC50 ratio)?
Result :: 4772

Query :: Quick one: SI IIIB (CC50/EC50 ratio) for Cc1cc(C)cc(S(=O)(=O)c2c(C(=O)NCCNS(=O)(=O)c3cccs3)[nH]c3ccc(Cl)cc23)c1 ?
Result :: 1558

Query :: Which value of SI IIIB (CC50/EC50 ratio) has been reported for Cc1cc(C)cc(S(=O)(=O)c2c(C(=O)NCCCNS(=O)(=O)c3ccc([N+](=O)[O-])cc3)[nH]c3ccc(Cl)cc23)c1 in the records?
Result :: 464

Query :: Entry Cc1cc(C)cc(S(=O)(=O)c2c(C(=O)NCCCNS(=O)(=O)c3ccc(F)cc3)[nH]c3ccc(Cl)cc23)c1 : reported SI IIIB (CC50/EC50 ratio) = ?
Result :: 901

Query :: Consider the compound shown here: COc1ccc(S(=O)(=O)NCCCNC(=O)c2[nH]c3ccc(Cl)cc3c2S(=O)(=O)c2cc(C)cc(C)c2)cc1 What is its recorded SI IIIB (CC50/EC50 ratio)?
Result :: 4354

Query :: Requested field: SI IIIB (CC50/EC50 ratio). Item: Cc1cc(C)cc(S(=O)(=O)c2c(C(=O)NCCCNS(=O)(=O)c3ccc(C#N)cc3)[nH]c3ccc(Cl)cc23)c1
Result :: 732

Query :: What measured SI IIIB (CC50/EC50 ratio) goes with Cc1cc(C)cc(S(=O)(=O)c2c(C(=O)NCCCCNS(=O)(=O)c3ccc([N+](=O)[O-])cc3)[nH]c3ccc(Cl)cc23)c1 ?
Result :: 3809

Query :: Entry Cc1cc(C)cc(S(=O)(=O)c2c(C(=O)NCCNS(=O)(=O)c3ccc(C#N)cc3)[nH]c3ccc(Cl)cc23)c1 has what SI IIIB (CC50/EC50 ratio)?
Result :: 362

Query :: What SI IIIB (CC50/EC50 ratio) value was documented for this compound, Cc1cc(C)cc(S(=O)(=O)c2c(C(=O)NCCCNS(=O)(=O)c3cccnc3)[nH]c3ccc(Cl)cc23)c1 ?
Result :: 6950

Query :: Endpoint output: SI IIIB (CC50/EC50 ratio) of COc1ccc(S(=O)(=O)NCCNC(=O)c2[nH]c3ccc(Cl)cc3c2S(=O)(=O)c2cc(C)cc(C)c2)cc1 . Value?
Result :: 1233
